Cited source: PubChem BioAssay AID602350

# MEASUREMENT TARGET: Protein disulfide-isomerase (Homo sapiens) (UniProt P07237)
# Sequence (P07237 whole entry, looked up): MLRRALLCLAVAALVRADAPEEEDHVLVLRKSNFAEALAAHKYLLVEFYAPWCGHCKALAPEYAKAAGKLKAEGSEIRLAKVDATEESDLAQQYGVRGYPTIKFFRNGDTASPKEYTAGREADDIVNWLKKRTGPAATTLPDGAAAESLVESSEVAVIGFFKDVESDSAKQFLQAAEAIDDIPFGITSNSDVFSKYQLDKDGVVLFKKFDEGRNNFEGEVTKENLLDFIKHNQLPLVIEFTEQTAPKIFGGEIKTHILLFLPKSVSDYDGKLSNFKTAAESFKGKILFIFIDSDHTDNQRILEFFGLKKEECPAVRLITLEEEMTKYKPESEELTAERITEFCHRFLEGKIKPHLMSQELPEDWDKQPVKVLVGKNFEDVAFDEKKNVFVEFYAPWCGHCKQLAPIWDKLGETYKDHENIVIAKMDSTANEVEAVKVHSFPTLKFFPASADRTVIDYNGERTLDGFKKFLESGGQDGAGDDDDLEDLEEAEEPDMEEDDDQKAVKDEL
# PROTOCOL SUMMARY: inhibition of PDI-driven insulin aggregation – biochemical, turbidity, absorbance, cherry-picked samples, dose response (AID 602350);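 note: 0% = neutral controls and -100% = rutin hydrate positive control wells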
# STUDY CONDITIONS: recombinant PDI insulin aggregation, absorbance 650 nm, 90 min; series mostly up to 19.5 µM
Entries with a potency or affinity are not part of this list. The source made the active and inactive calls.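 Rule for the calls: active = absorbance falls by 30% or more versus neutral controls, with a potency fitted within twice the top valid dose; inconclusive = no clear call, values can overlap the other calls; inactive = change opposite to expected direction, plus the rest.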
METRIC: activity change, negative = inhibition

Below, 10 molecules whose answers are already recorded.
INSERT INTO assay_data (molecule, value) VALUES
  ('CC(C)Oc1cccc(C(=O)NC(=S)Nc2cccc(NC(=O)c3ccccc3Cl)c2)c1', 'inactive'),
  ('O=C(OCc1ccc(-c2ccccc2)cc1)c1cccc(O)c1', 'inactive'),
  ('C[C@H](CO)N1C[C@H](C)[C@H](CN(C)Cc2ccc(Oc3ccccc3)cc2)Oc2c(NS(C)(=O)=O)cccc2C1=O', 'inactive'),
  ('Cc1ccc(C(=O)NCCN2C3=NC[C@H](Cc4ccc(O)cc4)N3C[C@H]2Cc2ccc(O)cc2)cc1Br', 'inactive'),
  ('CN(C1=NC(=O)C(CC(=O)Nc2ccc(Br)cc2)S1)c1ccc(O)cc1 (stereo not given)', 'inactive'),
  ('O=C1CN(c2nc3ccccc3n3cnnc23)CC(=O)N1CCc1ccccc1', 'inactive'),
  ('Cc1c(C(=O)N2CCOCC2)sc2ncn(CC(=O)N3CCC(C)CC3)c(=O)c12', 'inactive'),
  ('CCOC(=O)c1c(CN(CC)CC)n(C)c2cc(Br)c(O)cc12', 'inactive'),
  ('Nc1ccc(C(=O)NN2C(=O)[C@H](Cl)C2c2ccc(Cl)cc2)cc1 (stereo not given in full)', 'inactive'),
  ('CCCN(CCC)S(=O)(=O)c1ccc(C(=O)Nc2nnc(COC)o2)cc1', 'inactive');

Lab note: each molecule below needs its activity change, negative = inhibition filled in.
1. CCOC(=O)c1c(CN2CCOCC2)n(-c2ccccc2)c2ccc(O)cc12
2. COc1cc(CCC(=O)OCC(=O)Nc2cc(S(=O)(=O)N3CCOCC3)ccc2Cl)cc(OC)c1OC
3. COc1ccc(C[C@@H]2CN3C(=NC[C@@H]3Cc3ccc(O)cc3)N2C[C@H](C)NC(=O)CCC2CCCCC2)cc1
4. COc1ccc(C[C@@H]2OC3(C=CC(=O)C=C3)O[C@H]2Cc2ccc(OC)cc2)cc1
5. COc1cc(C(C)=O)ccc1OCC(=O)NCCCn1nc(C)cc1C
6. O=C(CCS(=O)(=O)c1ccccc1)N(CCCN1CCOCC1)c1nc2ccccc2s1
7. COc1ccc(C2c3ccc(O)cc3Oc3ncn(Cc4ccco4)c(=N)c32)cc1OC (stereo not given)
8. CCOC(=O)CN(c1ccccc1)S(=O)(=O)c1ccc(F)cc1

A:
["inactive", "inactive", "inactive", "-2.56% [at 2.1 µM] (inactive)", "inactive", "inactive", "inactive", "inactive"]

Need activity change, negative = inhibition for each of these molecules.
1. O=C(NC1CCCCC1)C1CCN(S(=O)(=O)c2cccs2)CC1
2. COc1cccc(NC(=O)CN(C)C(=O)/C=C/c2cc(OC)ccc2OC)c1

A:
1: inactive; 2: inactive
